System: RXF 393
experiment: NCI tumour cell line growth inhibition, 48 h
Calls of active or inactive are those of the source. No stated cut-off is given here; in the data, active = GI50 up to about 1.1 µM and inactive = higher. Square brackets hold non-standard residues; d marks the D form. Peptide text beside a SMILES is read from it. * marks the point of attachment. ξ: configuration not given here. Propanoyl(3-(4-MeO-Ph)) = COc1ccc(CCC(=O)*)cc1; Thr(3ξ) = CC(O)[C@H](N)C(=O)O; dNMeL = CN[C@H](CC(C)C)C(=O)O; ξLac = CC(O)C(=O)O

compound	assayed system	GI50
O=C(Oc1ccccc1)c1cc2cc(CCl)ccc2oc1=O	RXF 393	13.5 µM (inactive)
CC1(C)CCC(=O)c2c(O)ccc(O)c21	RXF 393	18.4 µM (inactive)
N#CC(NNC(=O)c1ccccc1O)c1cccc(O)c1 (stereo not given)	RXF 393	1.78 µM (inactive)
O=C(CCc1cc(O)ccc1O)OCCc1ccccc1	RXF 393	11.7 µM (inactive)
C=CCNC(=O)NC1=CSC2=NC(=O)C3(NN12)c1ccccc1-c1ccccc13	RXF 393	> 10 µM (inactive)
COc1ccccc1NC(=O)CC(=O)N1N=C(C)C(/N=N/c2ccc(C(=O)O)cc2)C1=O (stereo not given)	RXF 393	> 100 µM (inactive)
Cc1ccc(S(=O)(=O)NC(=O)Nc2nc[nH]n2)cc1	RXF 393	> 100 µM (inactive)
COc1ccc2c(c1)CC[C@@H]1C2CC[C@]2(C)C(=O)N(CCN(C)C)C(=O)CC12 (stereo not given in full)	RXF 393	> 100 µM (inactive)
NC(=O)C(c1ccccc1)N1OC2C(=O)N(Cc3ccccc3)C(=O)C2C1c1cccc(Oc2ccc(Cl)cc2)c1 (stereo not given)	RXF 393	17.5 µM (inactive)
Cc1c(-c2ccccc2)c(C#N)c2nnn(C3CCCCC3)c(=O)n12	RXF 393	19.8 µM (inactive)
Nc1nc(SCCNC(=O)CCc2ccc(O)c(I)c2)nc2c1ncn2C1OC(CO)C(O)C1O (stereo not given)	RXF 393	> 100 µM (inactive)
NC(=O)C/C=C/CC(N)=O	RXF 393	> 100 µM (inactive)
COC(=O)[C@@H](NC(=O)[C@@H](CC(C)C)N(C)C(=O)[C@@H]1CCCN1C(=O)C(C)O)C(C)OC(=O)CCc1ccc(OC)cc1 (stereo not given in full) (H-[ξLac]P[dNMeL][Thr(3ξ)](Propanoyl(3-(4-MeO-Ph)))-OMe)	RXF 393	> 100 µM (inactive)
CCC1(OC(C)=O)C(=O)OCc2c1cc1n(c2=O)Cc2cc3ccccc3nc2-1 (stereo not given)	RXF 393	2.64 µM (inactive)
CC1=NN(C(=O)c2ccc(Cl)cc2)C(=O)/C1=C/c1cccc(O)c1	RXF 393	> 100 µM (inactive)

---

Test system: OVCAR-5
experiment: NCI tumour cell line growth inhibition, 48 h
Activity calls are given as the source filed them. No stated cut-off is given here; in the data, active = GI50 up to about 1.1 µM and inactive = higher.
measurement label: GI50

molecule	observed
CCOC(=O)Nc1[nH]cc(-c2ccccc2)c1C#N	> 100 µM (inactive)
CC1N[B@@-](C)(c2ccc(C(F)(F)F)cc2)OC1c1ccccc1 (some centres not stated)	> 100 µM (inactive)
c1ccc([S+](c2ccccc2)c2ccc(Sc3ccc([S+](c4ccccc4)c4ccccc4)cc3)cc2)cc1	12.3 µM (inactive)
O=c1[nH]nc(-c2ccccc2)n1/N=C/c1c[nH]c2ccccc12	> 100 µM (inactive)
COc1cc([C@@H]2c3cc4c(cc3[C@@H](NC(=O)c3ccccc3)C3COC(=O)[C@@H]32)OCO4)cc(OC)c1O (some centres not stated)	49.9 µM (inactive)
N=C(N)Nc1ncccc1[N+](=O)[O-]	> 100 µM (inactive)
N#Cc1cccc(-n2[nH]c(=O)ccc2=O)c1	> 100 µM (inactive)
CC1=C2c3ccccc3N(S(=O)(=O)c3ccccc3)[C@H]2[C@H](C(=O)N2C3CC4CC[C@@]3(CS2(=O)=O)C4(C)C)CC1 (some centres not stated)	> 100 µM (inactive)
Oc1cc(CN2COc3ccccc32)c(O)cc1CNC1CCCCC1	> 100 µM (inactive)
N#Cc1c(N2CCCC2)ncn(Cc2ccccc2)c1=O	> 100 µM (inactive)
CCNC1(c2cccc(C)c2)OC(C)(C)c2cccc3cccc1c23 (configuration not stated)	19.1 µM (inactive)
c1ccc2c3c([nH]c2c1)[C@H]1C2CCCCN2CN1CC3 (some centres not stated)	> 100 µM (inactive)
